assayedSystem: NTF2 domain of G3BP1 (Homo sapiens, UniProt Q13283)
Sequence (Q13283 11-133 limits assumed): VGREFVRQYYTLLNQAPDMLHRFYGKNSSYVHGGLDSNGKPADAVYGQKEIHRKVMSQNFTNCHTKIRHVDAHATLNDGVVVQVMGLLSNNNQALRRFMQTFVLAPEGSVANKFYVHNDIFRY
Peptide text beside a SMILES is read from it.
recordedMetric: pIC50
Expect pIC50 as a plain number equal to -log10 of the molar concentration.

Incoming: Given the entry CC(=O)N[C@@H](CCC(=O)O)C(=O)N[C@@H](CO)C(=O)N[C@@H](CC(C)C)C(=O)N1CCC[C@H]1C(=O)N[C@@H](Cc1ccccc1)C(=O)N[C@@H](CO)C(=O)N[C@@H](Cc1ccccc1)C(=O)NCC(=O)N[C@H](C(=O)N[C@@H](CC(C)C)C(=O)N[C@@H](CO)C(=O)N[C@@H](CO)C(=O)N[C@@H](Cc1c[nH]c2ccccc12)C(=O)N[C@@H](CCC(=O)O)C(=O)N[C@@H](CC(C)C)C(=O)N[C@@H](CCC(=O)O)C(=O)O)[C@@H](C)O [DDIT3 4-19 Human] (Ac-ESLPFSFGTLSSWELE-OH) , report its measured pIC50.
Outgoing: 4.36
